Cited source for all entries: ChEMBL document CHEMBL4376885

So I've got a bunch of compounds here, and I need their pEC50 values.
System: Human immunodeficiency virus 1
experiment.notes: Antiviral activity against HIV1 3B infected in human MT4 cells assessed as protection against virus-induced cytopathic effect incubated for 5 days by MTT assay
Type: functional, organism-based
measurement.setup: Human immunodeficiency virus 1, 3B, MT4, 120 h
One number for each entry, as −log10 of the molar value.

[
  {
    "compound.smiles": "Cc1cc(C#N)cc(C)c1Oc1nc(Nc2ccc(C#N)cc2C(F)(F)F)nc2ccsc12",
    "endpoint.result": 6.05
  },
  {
    "compound.smiles": "Cc1cc(C#N)cc(C)c1Oc1nc(Nc2ccc(C#N)cc2F)nc2ccsc12",
    "endpoint.result": 7.52
  },
  {
    "compound.smiles": "Cc1cc(C#N)cc(C)c1Oc1nc(Nc2ccc(C#N)c(F)c2)nc2c1SCC2",
    "endpoint.result": 8.20
  },
  {
    "compound.smiles": "Cc1cc(C#N)cc(C)c1Oc1nc(Nc2ccc(C#N)c(C(F)(F)F)c2)nc2sccc12",
    "endpoint.result": 7.35
  },
  {
    "compound.smiles": "Cc1cc(C#N)cc(C)c1Oc1nc(Nc2ccc(C#N)c(F)c2)nc2c1CSC2",
    "endpoint.result": 7.68
  },
  {
    "compound.smiles": "Cc1cc(C#N)cc(C)c1Oc1nc(Nc2ccc(C#N)c(F)c2)nc2ccccc12",
    "endpoint.result": 8.09
  },
  {
    "compound.smiles": "Cc1cc(C#N)cc(C)c1Oc1ccnc(Nc2ccc(C#N)c(F)c2)n1",
    "endpoint.result": 8.20
  },
  {
    "compound.smiles": "Cc1cc(/C=C/C#N)cc(C)c1Oc1nc(Nc2ccc(C#N)c(F)c2F)nc2ccsc12",
    "endpoint.result": 8.05
  }
]

Give pEC50 for each listed item.
1. Cc1cc(C#N)cc(C)c1Oc1cc(Cl)nc(Nc2ccc(C#N)c(F)c2)n1
2. Cc1cc(/C=C/C#N)cc(C)c1Oc1nc(Nc2ccc(C#N)cc2C(F)(F)F)nc2sccc12

A)
1: 7.31; 2: 6.78

----------
System: Human immunodeficiency virus 1
experiment.notes: Antiviral activity against HIV1 containing reverse transcriptase K103N mutant infected in human MT4 cells assessed as protection against virus-induced cytopathic effect incubated for 5 days by MTT assay
Format: functional, organism-based
measurement.setup: Human immunodeficiency virus 1, MT4, 120 h
experimental.endpoint: pEC50
Numbers only, as −log10 of the molar value.

Q) Bench note: what pEC50 did Cc1cc(/C=C/C#N)cc(C)c1Oc1nc(Nc2ccc(C#N)c(F)c2)nc2sccc12 show?
A) 8.13

----------
Tested on: Human immunodeficiency virus 1
experiment.notes: Antiviral activity against HIV1 3B infected in human MT4 cells assessed as protection against virus-induced cytopathic effect incubated for 5 days by MTT assay
Format: functional, organism-based
measurement.setup: Human immunodeficiency virus 1, 3B, MT4, 120 h
pEC50: −log10 of the molar value.
Think of 8 as a floor: if pEC50 stands on it or above, it is class 1; beneath it, class 0.

Worked examples follow.
[
  {
    "compound.smiles": "Cc1cc(C#N)cc(C)c1Oc1nc(Nc2ccc(C#N)c(F)c2)nc2ncsc12",
    "assay.system": "Human immunodeficiency virus 1",
    "assigned.label": "class 1"
  },
  {
    "compound.smiles": "Cc1cc(C#N)cc(C)c1Oc1nc(Nc2ccc(C#N)c(F)c2)nc2scnc12",
    "assay.system": "Human immunodeficiency virus 1",
    "assigned.label": "class 1"
  },
  {
    "compound.smiles": "Cc1cc(/C=C/C#N)cc(C)c1Oc1nc(Nc2ccc(C#N)c(C(F)(F)F)c2)nc2sccc12",
    "assay.system": "Human immunodeficiency virus 1",
    "assigned.label": "class 0"
  },
  {
    "compound.smiles": "Cc1cc(/C=C/C#N)cc(C)c1Oc1nc(Nc2ccc(C#N)c(C(F)(F)F)c2)nc2ccsc12",
    "assay.system": "Human immunodeficiency virus 1",
    "assigned.label": "class 0"
  },
  {
    "compound.smiles": "Cc1cc(C#N)cc(C)c1Oc1nc(Nc2ccc(C#N)c(C(F)(F)F)c2)nc2ccsc12",
    "assay.system": "Human immunodeficiency virus 1",
    "assigned.label": "class 0"
  }
]

Q) Please tell me: is the compound Cc1cc(/C=C/C#N)cc(C)c1Oc1nc(Nc2ccc(C#N)cc2C(F)(F)F)nc2ccsc12 at or over 8 in terms of pEC50?
A) class 0

Q) Please tell me: is the compound Cc1cc(C#N)cc(C)c1Oc1nc(Nc2ccc(C#N)c(F)c2)nc2cc[nH]c12 at or over 8 in terms of pEC50?
A) class 1
